# Tested on: leucine aminopeptidase
# PROTOCOL_TEXT: Leucine aminopeptidase-inhibitory activity
# Type: biochemical
# EXPERIMENTAL_CONTEXT: concentration 0.1 μM; swine kidney, pH 8.0
Parameter inhibition of leucine aminopeptidase: see the listing below.
Output spec: scalar in %, unitless text.

# annotated cases, reported inhibition of leucine aminopeptidase shown
CC(C)(C)C(=O)OCC(=O)[C@@H]1CCCN1C(=O)[C@@H]1CCCN1C(=O)NCc1ccccc1; 0
Cc1ccc(CNC(=O)N2CCC[C@H]2C(=O)N2CCC[C@H]2C(=O)COC(=O)c2ccccc2)cc1; 0

Then there is this molecule:
Look up leucine aminopeptidase data: inhibition of leucine aminopeptidase of O=C(OCC(=O)[C@@H]1CCCN1C(=O)[C@@H]1CCCN1C(=O)NCc1ccccc1)c1ccccc1 , then report it. 0
